Tested on: Candida utilis ATCC 26387
Test: sec-alcohols to ketones by cell suspensions of yeasts
Format: cell-based
Conditions: Growth Substrate Methylformate
measurement-type: Conversion Rate, sec-alcohol to corresponding ketone

Query the reported Conversion Rate, sec-alcohol to corresponding ketone for Candida utilis ATCC 26387; item: CC(C)O
5.6 μmoles/hr/mg of protein

Subsequent entry: CCC(C)O (stereo not shown)
6.2 μmoles/hr/mg of protein

Same lookup for CCCC(C)O (stereo not shown) , please.
1.3 μmoles/hr/mg of protein

Check CCCCC(C)O (stereo not shown) too.
0.75 μmoles/hr/mg of protein

---

Test system: purified secondary alcohol dehydrogenase
Assay: substrate specificity, electron acceptor and stoichiometry of purified yeast SADH
Conditions: examined spectrophotometrically
measurement-type: oxidation by the purified yeast secondary alcohol dehydrogenase

// below: answered molecules
# molecule, tested-target, observed-result
rows = [
    ("CC(C)O [2-Propanol, 2-propanol]", "purified secondary alcohol dehydrogenase", "catalyzed the oxidation"),
    ("CCC(O)CO (stereo not shown) [butane 1,2-diol]", "purified secondary alcohol dehydrogenase", "not oxidized"),
    ("CC(O)CO (stereo not shown) [1,2-propandiol]", "purified secondary alcohol dehydrogenase", "not oxidized"),
    ("CCO [ethanol]", "purified secondary alcohol dehydrogenase", "not oxidized"),
]

// map CCCCCO [pentan-1-ol] to recorded oxidation by the purified yeast secondary alcohol dehydrogenase (system: purified secondary alcohol dehydrogenase)
not oxidized

Try CO [methanol] next.
not oxidized

Subsequent entry: CCC(C)O (stereo not shown) [2-Butanol, 2-butanol]
catalyzed the oxidation

---

System: Pseudomonas sp. ATCC 21438 (Facultative)
Test: sec-alcohols to ketones by resting cell suspensions
Assay type: cell-based
Details: methylamine-grown cells
Each item that follows carries a reported Conversion Rates, sec-alcohol to corresponding ketone.
I only need the number, in μmoles/hr/mg protein, no unit after it.

These solved cases illustrate the format of a correct answer.
# compound, observed-result
rows = [
    ("CCC(C)O (stereo not drawn)", 2.1),
    ("CCCCC(C)O (stereo not drawn)", 0.07),
]

Let us examine a further case.
Endpoint output: Conversion Rates, sec-alcohol to corresponding ketone of CCCC(C)O (stereo not drawn) . Value?
0.82

---

System: purified secondary alcohol dehydrogenase (SADH)
Assay: substrate specificity and Michaelis constants of purified SADH
Format: biochemical, Pseudomonas sp. ATCC 21439

# compound, oxidation by purified SADH
data = [
    ("CC(O)C(C)O (stereo not shown) [butane 2,3-diol]", "lower rate"),
    ("O=C(O)CCC(=O)O [succinic acid]", "not oxidized"),
    ("CC=O [acetaldehyde]", "lower rate"),
    ("O=Cc1ccccc1 [benzaldehyde]", "not oxidized"),
]
